Attribute: Ki
target: human recombinant MAO-A (Homo sapiens, UniProt P21397); assay: Monoamine oxidase inhibition assay (Amplex Red, kynuramine), MAO-A; conditions: read-out: Ki MAO-A; kynuramine substrate, pH 7.4, 37°C
Sequence (P21397 whole entry): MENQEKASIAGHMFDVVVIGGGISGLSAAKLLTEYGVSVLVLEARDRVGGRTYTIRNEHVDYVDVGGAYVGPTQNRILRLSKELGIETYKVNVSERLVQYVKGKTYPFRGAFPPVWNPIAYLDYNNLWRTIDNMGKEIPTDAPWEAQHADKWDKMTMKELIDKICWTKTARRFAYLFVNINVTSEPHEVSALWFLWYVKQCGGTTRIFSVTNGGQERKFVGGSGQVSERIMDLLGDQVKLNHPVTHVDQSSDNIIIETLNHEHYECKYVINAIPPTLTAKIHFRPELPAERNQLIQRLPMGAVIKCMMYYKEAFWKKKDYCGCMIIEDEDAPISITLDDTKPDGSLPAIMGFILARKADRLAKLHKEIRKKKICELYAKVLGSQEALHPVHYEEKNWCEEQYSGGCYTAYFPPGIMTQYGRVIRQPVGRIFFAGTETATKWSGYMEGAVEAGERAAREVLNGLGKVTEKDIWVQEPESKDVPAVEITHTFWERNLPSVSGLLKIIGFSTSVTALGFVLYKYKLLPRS
Answer with the figure and its unit, nothing else.

As a guide, the following entries are already answered.
molecule	Ki
O=C(/C=C/c1ccccc1)c1ccc(C(F)(F)F)cc1 [Compound 14]	9.2 µM
O=C(/C=C/c1ccccc1)c1ccccc1 [chalcone]	14.6 µM

What does the record list as Ki for O=C(/C=C/c1ccccc1[N+](=O)[O-])c1ccccc1 [Compound 1] ?
2.2 µM

What does the record list as Ki for O=C(/C=C/c1cccc([N+](=O)[O-])c1)c1ccccc1 [Compound 2] ?
2.5 µM

What does the record list as Ki for O=C(/C=C/c1ccccc1)c1cccc(C(F)(F)F)c1 [Compound 13] ?
4.6 µM

What does the record list as Ki for COc1ccc(C(=O)/C=C/c2ccccc2)cc1 [Compound 17] ?
13 µM

---

Attribute: Ki
biological target: human recombinant MAO-B (Homo sapiens); experiment: Monoamine oxidase inhibition assay (Amplex Red, kynuramine), MAO-B; details: read-out: Ki MAO-B; kynuramine substrate, pH 7.4, 37°C
Sequence (P27338 whole entry): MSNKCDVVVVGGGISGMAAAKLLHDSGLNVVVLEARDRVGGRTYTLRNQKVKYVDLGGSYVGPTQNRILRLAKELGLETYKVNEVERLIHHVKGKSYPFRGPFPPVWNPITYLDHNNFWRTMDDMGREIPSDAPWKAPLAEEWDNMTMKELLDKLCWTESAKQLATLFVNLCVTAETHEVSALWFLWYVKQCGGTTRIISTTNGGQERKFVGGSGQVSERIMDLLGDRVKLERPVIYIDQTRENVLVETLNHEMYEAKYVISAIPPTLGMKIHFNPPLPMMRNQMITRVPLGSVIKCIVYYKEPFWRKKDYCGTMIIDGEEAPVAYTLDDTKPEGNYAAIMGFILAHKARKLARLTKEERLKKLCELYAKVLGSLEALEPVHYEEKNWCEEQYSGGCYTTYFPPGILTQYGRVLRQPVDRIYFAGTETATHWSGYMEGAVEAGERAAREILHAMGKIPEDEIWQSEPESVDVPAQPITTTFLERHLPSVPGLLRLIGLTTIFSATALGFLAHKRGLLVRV
Record the value in nM, omitting the unit from your answer.

As a guide, the following entries are already answered.
record.smiles	system.tested	measured.value
O=C(/C=C/c1ccccc1)c1cccc(C(F)(F)F)c1	human recombinant MAO-B (Homo sapiens)	5
O=C(/C=C/c1ccccc1)c1ccccc1	human recombinant MAO-B (Homo sapiens)	56
O=C(/C=C/c1ccccc1)c1ccc(C(F)(F)F)cc1	human recombinant MAO-B (Homo sapiens)	14.6
O=C(/C=C/c1cccc([N+](=O)[O-])c1)c1ccccc1	human recombinant MAO-B (Homo sapiens)	71

Continue with the compound presented below.
What does the record list as Ki for O=C(/C=C/c1ccccc1[N+](=O)[O-])c1ccccc1 ?
400

The measurements presented in this section are drawn from paper PMC8274062.
